biological target: Secreted effector protein (Yersinia pestis, UniProt O68720); assay: Inhibition of Yersinia pestis outer protein H expressed in Escherichia coli after 15 to 20 mins
Sequence (O68720 whole entry): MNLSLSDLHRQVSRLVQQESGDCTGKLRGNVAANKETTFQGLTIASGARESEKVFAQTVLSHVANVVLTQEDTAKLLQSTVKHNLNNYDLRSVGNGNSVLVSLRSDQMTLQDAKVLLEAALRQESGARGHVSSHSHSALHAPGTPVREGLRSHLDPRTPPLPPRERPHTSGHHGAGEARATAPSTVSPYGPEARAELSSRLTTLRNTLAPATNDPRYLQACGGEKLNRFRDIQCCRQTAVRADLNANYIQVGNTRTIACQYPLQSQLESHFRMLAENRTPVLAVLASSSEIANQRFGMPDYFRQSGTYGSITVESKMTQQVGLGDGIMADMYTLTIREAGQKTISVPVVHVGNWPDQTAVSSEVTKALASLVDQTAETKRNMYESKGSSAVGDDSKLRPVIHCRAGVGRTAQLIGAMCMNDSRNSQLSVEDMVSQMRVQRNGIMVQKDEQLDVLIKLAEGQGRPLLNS
Readout name: pIC50
In plain terms, pIC50 is the concentration in mol/L turned into minus its base-10 logarithm.

chemical_smiles=O=P(O)(O)C(F)(F)c1cccc(-c2ccc(CO/N=C/c3ccc(CO)o3)cc2)c1 readout_name=pIC50 observed_result=6.14
chemical_smiles=Cc1ccc(/C=N/OCc2ccc(-c3cccc(C(F)(F)P(=O)(O)O)c3)cc2)o1 readout_name=pIC50 observed_result=6.04

(Q) pIC50 for O=P(O)(O)C(F)(F)c1cccc(-c2ccc(CO/N=C/c3ccco3)cc2)c1 ?
(A) 5.92
